target: T1, Fel d1 (B-A)-mmH (cat (Felis domesticus)); assay: SPR, mAb captured, Fel d1 (B-A)-mmH injected, 25 C;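 further: rate constants obtained by fitting sensorgrams to a one-to-one binding model, Kd computed as koff over kon, half-life derived from koff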
T1 construct: Expressed in CHO cells; also called rFel d1.mmH; rFel d1-mmH
T1 sequence (chain, as listed by the source limits assumed): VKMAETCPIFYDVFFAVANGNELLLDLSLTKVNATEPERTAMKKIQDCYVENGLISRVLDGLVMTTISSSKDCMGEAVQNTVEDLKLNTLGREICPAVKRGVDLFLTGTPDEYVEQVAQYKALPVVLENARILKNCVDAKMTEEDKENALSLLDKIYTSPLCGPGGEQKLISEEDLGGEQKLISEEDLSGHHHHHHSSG
Kd for assorted binders

# Binder, Kd
measured = [
    ("H1M1230N (antibody, V domains shown, chimeric, human variable domains with mouse Fc (prefix H1M)) VH: EVQLVESGGGLVQPGGSLRLSCTASGFIFSNFWMTWVRQAPGKGLEWVANIKQDGSETYCVDSVKGRFTISRDHAKNSLFLQMNSLRAEDTAVYYCARGAGTIYYYGMDVWGQGTTVIVSS VL: DIQMTQSPSSVSASVGDRLTITCRASQDISSWLTWYQQKPGKAPNLLIYAASGLQSGVPSRFSGSGSGTDFTLTISNLQPEDFATYYCQQANSFPLTFGQGTRLEIK", "1310 pM"),
    ("H2M1236N (antibody, mouse IgG2, V domains shown, chimeric, human variable domains with mouse IgG2 Fc (prefix H2M)) VH: QVQLQESGPGLVKPSETLSLTCTVSGGSISNYYWSWIRQPPGKGLEWIGYIYYSGRTNYNPSLKSRVTISVDTSKNQFSLKLRSVTAADTAVYYCARHRITRTADSFDYWGQGTLVTVSS VL: DIQMTQSPSSLSASVGDRVTITCQASQDITNYLNWYQQKPGKAPKLLIYDASNLETGVPSRFSGSGSGTDFTFTISSLQPEDVATFYCHQYGDLPYTFGQGTKLEIK", "558 pM"),
    ("H4H2864P (antibody, human IgG4, V domains shown, human IgG4 Fc (prefix H4H)) VH: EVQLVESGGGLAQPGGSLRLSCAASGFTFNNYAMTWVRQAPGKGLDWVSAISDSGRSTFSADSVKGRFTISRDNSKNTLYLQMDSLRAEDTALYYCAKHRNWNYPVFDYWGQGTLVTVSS VL: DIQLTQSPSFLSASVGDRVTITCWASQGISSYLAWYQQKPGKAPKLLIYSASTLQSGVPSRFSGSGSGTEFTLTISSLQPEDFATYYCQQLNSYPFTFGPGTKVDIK", "576 pM"),
]
